Target: Cannabinoid receptor 1 (Homo sapiens, UniProt P21554)
Sequence (P21554 whole entry): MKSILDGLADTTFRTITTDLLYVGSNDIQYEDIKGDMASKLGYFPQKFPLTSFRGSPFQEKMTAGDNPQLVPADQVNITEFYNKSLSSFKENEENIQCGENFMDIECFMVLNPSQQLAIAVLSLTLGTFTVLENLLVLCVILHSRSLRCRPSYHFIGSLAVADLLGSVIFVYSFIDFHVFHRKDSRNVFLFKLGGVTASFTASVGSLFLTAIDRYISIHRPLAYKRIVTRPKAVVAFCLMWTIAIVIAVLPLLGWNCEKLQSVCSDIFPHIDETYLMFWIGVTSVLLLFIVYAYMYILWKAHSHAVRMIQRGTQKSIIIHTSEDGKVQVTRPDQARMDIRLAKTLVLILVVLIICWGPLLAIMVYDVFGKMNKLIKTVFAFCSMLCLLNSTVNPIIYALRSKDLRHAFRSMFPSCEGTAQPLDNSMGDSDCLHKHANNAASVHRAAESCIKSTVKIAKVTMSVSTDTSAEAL
Assay: Inverse agonist activity at CB1 receptor (unknown origin) expressed in HEK cells assessed as increase in cAMP production at 5 x 10^-6 to 5 x 10^-10 M measured at 50 mins by ACTOne dye-based fluorescence assay in presence of forskolin and Ro 20-1724 relative to control
Type: functional, cell-based
Conditions: HEK293
Active and inactive are the calls of the source. No cut-off for these calls is given here.
Quantity Measured: Efficacy

O=C(c1ccc(C(F)(F)F)cc1)c1cc(O)c(-c2cc(Cl)cc(Cl)c2)c(O)c1 :: 37%
O=C(c1cc(O)c(-c2cc(Cl)cc(Cl)c2)c(O)c1)C1CCCCC1 :: inactive
COc1cc(C(=O)c2ccc(C)cc2)cc(OC)c1-c1cc(Cl)cc(Cl)c1 :: inactive
O=C(c1ccccc1)c1cc(O)c(-c2cc(Cl)cc(Cl)c2)c(O)c1 :: inactive

* * *

Species: Homo sapiens
Assay: Selectivity ratio of Ki for CB1 receptor (unknown origin) to Ki for CB2 receptor (unknown origin)
Consider the following compounds; for each one, report its Ratio Ki.
Please state the value as a number alone, without comment.

Query: Note down Ratio Ki recorded for O=C(c1cc(O)c(-c2cc(Cl)cc(Cl)c2)c(O)c1)C1CCCCC1
Result: 0.19

Query: Note down Ratio Ki recorded for O=C(c1ccc(Cl)cc1)c1cc(O)c(-c2cc(Cl)cc(Cl)c2)c(O)c1
Result: 38.5

Query: Note down Ratio Ki recorded for O=C(c1ccccc1)c1cc(O)c(-c2cc(Cl)cc(Cl)c2)c(O)c1
Result: 39.4

Query: Note down Ratio Ki recorded for Cc1ccc(C(=O)c2cc(O)c(-c3cc(Cl)cc(Cl)c3)c(O)c2)cc1
Result: 36.6

* * *

Consider the following compounds; for each one, report its Ki.

Query: State Ki on Cannabinoid receptor 1 (Homo sapiens). Entry: CC(C)c1ccc(C(=O)c2cc(O)c(-c3cc(Cl)cc(Cl)c3)c(O)c2)cc1
Result: 3.33 µM

Query: State Ki on Cannabinoid receptor 1 (Homo sapiens). Entry: CCc1cccc(C(=O)c2cc(O)c(-c3cc(Cl)cc(Cl)c3)c(O)c2)c1
Result: > 10 µM

Query: State Ki on Cannabinoid receptor 1 (Homo sapiens). Entry: COc1cc(C(=O)c2ccc(Cl)cc2)cc(OC)c1-c1cc(Cl)cc(Cl)c1
Result: > 10 µM

Query: State Ki on Cannabinoid receptor 1 (Homo sapiens). Entry: O=C(c1ccc(C(F)(F)F)cc1)c1cc(O)c(-c2cc(Cl)cc(Cl)c2)c(O)c1
Result: > 10 µM

Query: State Ki on Cannabinoid receptor 1 (Homo sapiens). Entry: COc1cc(C(=O)c2ccc(C)cc2)cc(OC)c1-c1cc(Cl)cc(Cl)c1
Result: > 10 µM

Query: State Ki on Cannabinoid receptor 1 (Homo sapiens). Entry: Cc1ccc(C(=O)c2cc(O)c(-c3cc(Cl)cc(Cl)c3)c(O)c2)cc1
Result: 9.43 µM

Query: State Ki on Cannabinoid receptor 1 (Homo sapiens). Entry: O=C(c1cc(O)c(-c2cc(Cl)cc(Cl)c2)c(O)c1)C1CCCCC1
Result: 0.299 µM

Query: State Ki on Cannabinoid receptor 1 (Homo sapiens). Entry: O=C(c1cccc(C(F)(F)F)c1)c1cc(O)c(-c2cc(Cl)cc(Cl)c2)c(O)c1
Result: 4.13 µM

Query: State Ki on Cannabinoid receptor 1 (Homo sapiens). Entry: O=C(c1ccc(Cl)cc1)c1cc(O)c(-c2cc(Cl)cc(Cl)c2)c(O)c1
Result: 4.65 µM

Query: State Ki on Cannabinoid receptor 1 (Homo sapiens). Entry: O=C(c1ccc(O)cc1)c1cc(O)c(-c2cc(Cl)cc(Cl)c2)c(O)c1
Result: > 10 µM

Query: State Ki on Cannabinoid receptor 1 (Homo sapiens). Entry: COc1cc(C(=O)c2ccc(C)cc2)cc(O)c1-c1cc(Cl)cc(Cl)c1
Result: > 10 µM

Query: State Ki on Cannabinoid receptor 1 (Homo sapiens). Entry: Cc1cc(C)cc(C(=O)c2cc(O)c(-c3cc(Cl)cc(Cl)c3)c(O)c2)c1
Result: > 10 µM

Query: State Ki on Cannabinoid receptor 1 (Homo sapiens). Entry: CCCCc1ccc(C(=O)c2cc(OC)c(-c3cc(Cl)cc(Cl)c3)c(OC)c2)cc1
Result: > 10 µM

Query: State Ki on Cannabinoid receptor 1 (Homo sapiens). Entry: CCCc1ccc(C(=O)c2cc(O)c(-c3cc(Cl)cc(Cl)c3)c(O)c2)cc1
Result: > 10 µM

Query: State Ki on Cannabinoid receptor 1 (Homo sapiens). Entry: CC(C)(C)c1ccc(C(=O)c2cc(O)c(-c3cc(Cl)cc(Cl)c3)c(O)c2)cc1
Result: 2.53 µM

Query: State Ki on Cannabinoid receptor 1 (Homo sapiens). Entry: COc1cc(C(=O)c2ccc(Cl)cc2)cc(O)c1-c1cc(Cl)cc(Cl)c1
Result: > 10 µM

Query: State Ki on Cannabinoid receptor 1 (Homo sapiens). Entry: CCCCc1ccc(C(=O)c2cc(O)c(-c3cc(Cl)cc(Cl)c3)c(OC)c2)cc1
Result: > 10 µM

Query: State Ki on Cannabinoid receptor 1 (Homo sapiens). Entry: CCc1ccc(C(=O)c2cc(O)c(-c3cc(Cl)cc(Cl)c3)c(O)c2)cc1
Result: 1.14 µM

Query: State Ki on Cannabinoid receptor 1 (Homo sapiens). Entry: CCCCCCC(=O)c1cc(O)c(-c2cc(Cl)cc(Cl)c2)c(O)c1
Result: > 10 µM

Query: State Ki on Cannabinoid receptor 1 (Homo sapiens). Entry: CCCCc1ccc(C(=O)c2cc(O)c(-c3cc(Cl)cc(Cl)c3)c(O)c2)cc1
Result: > 10 µM

Query: State Ki on Cannabinoid receptor 1 (Homo sapiens). Entry: Cc1cccc(C(=O)c2cc(O)c(-c3cc(Cl)cc(Cl)c3)c(O)c2)c1
Result: > 10 µM
